Reference source for all entries: PubChem BioAssay AID376

ASSAYED SYSTEM: Voltage-gated inwardly rectifying potassium channel KCNH2 (Homo sapiens) (UniProt Q12809)
Sequence (Q12809 whole entry, looked up): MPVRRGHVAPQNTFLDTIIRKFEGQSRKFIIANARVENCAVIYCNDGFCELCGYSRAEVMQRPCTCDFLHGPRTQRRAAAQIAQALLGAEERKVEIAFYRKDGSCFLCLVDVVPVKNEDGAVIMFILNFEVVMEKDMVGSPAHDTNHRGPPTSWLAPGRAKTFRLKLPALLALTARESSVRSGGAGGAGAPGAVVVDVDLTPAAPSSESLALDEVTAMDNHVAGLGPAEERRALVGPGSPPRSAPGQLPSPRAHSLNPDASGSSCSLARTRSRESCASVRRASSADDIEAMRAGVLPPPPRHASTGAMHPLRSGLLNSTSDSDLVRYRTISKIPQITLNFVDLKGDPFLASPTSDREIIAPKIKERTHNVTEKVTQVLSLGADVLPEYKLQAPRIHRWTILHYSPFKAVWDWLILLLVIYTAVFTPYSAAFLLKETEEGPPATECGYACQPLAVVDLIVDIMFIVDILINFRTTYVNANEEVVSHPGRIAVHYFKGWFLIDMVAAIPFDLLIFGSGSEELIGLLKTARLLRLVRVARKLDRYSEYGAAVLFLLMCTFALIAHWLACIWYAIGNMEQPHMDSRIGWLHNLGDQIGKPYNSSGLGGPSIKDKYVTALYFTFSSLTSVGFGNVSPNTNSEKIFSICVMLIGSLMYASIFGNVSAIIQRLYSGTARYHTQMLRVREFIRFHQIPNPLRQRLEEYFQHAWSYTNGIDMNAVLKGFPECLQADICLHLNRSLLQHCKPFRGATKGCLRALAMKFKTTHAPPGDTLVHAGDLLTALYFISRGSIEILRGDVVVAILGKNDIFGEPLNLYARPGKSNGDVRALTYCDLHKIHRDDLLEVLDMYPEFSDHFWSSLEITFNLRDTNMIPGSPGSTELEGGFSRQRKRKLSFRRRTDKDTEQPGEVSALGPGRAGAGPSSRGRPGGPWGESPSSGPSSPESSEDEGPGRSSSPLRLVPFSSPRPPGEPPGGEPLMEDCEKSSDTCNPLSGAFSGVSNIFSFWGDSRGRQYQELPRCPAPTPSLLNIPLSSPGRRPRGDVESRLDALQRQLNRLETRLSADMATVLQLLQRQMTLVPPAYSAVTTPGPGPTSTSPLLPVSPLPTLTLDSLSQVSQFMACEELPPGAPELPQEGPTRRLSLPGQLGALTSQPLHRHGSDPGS
ASSAY EXPLANATION: KCNH2 potassium channel function modulators, cell-based (AID 376);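 also: 0% = buffer alone and 100% = reference blocker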
TEST SETTINGS: hERG-expressing cells, channel activity single-concentration screen; concentration not given here
Screen size: about 2,000 compounds; about 250 (12%) were called active. Rule as the data show it: active = hERG blockade below about -20% or above about 20%; inactive = in between. This is one part of a sample in which actives are shown more often than they occur.
Your response should consist of one outcome taken from 1 = active, 0 = inactive

# COMPOUND, CATEGORY
data = [
    ("O=S(=O)(O)c1cc(O)c2c(O)c(N=Nc3cccc4ccccc34)c(S(=O)(=O)O)cc2c1", 0),
    ("CN(CCc1ccccn1)c1ccc2c(c1)C(=O)c1ccccc1-2", 1),
    ("O=[N+]([O-])c1ccc2c(c1)c(S(=O)(=O)O)cc1nonc12", 0),
]

Please share the test call associated with `CC(C)C(=O)C(C)(C)CCc1ccccn1` .
0

Outcome logged for `Nc1nc(SCC(=O)O)[nH]c(=O)c1N` in this assay:
0

Outcome? `NC1(C(=O)OCc2ccccc2)CCCC1`
0

Call for entry `NNC(=O)CCSc1ccccc1` :
0

Please share the test call associated with `Nc1ccccc1N=Nc1c(S(=O)(=O)O)cc2cc(S(=O)(=O)O)cc(O)c2c1O` .
1

Write down the call the test reported for this compound. Item: `O=C(O)CCCc1ccc2ccc3ccccc3c2c1`
0
